// data source = the supplement of paper PMC9170038

# Tested on: MS2 coat protein
# assay.text: apparent KD of MS2 coat protein; higher = weaker reporter binding
# details: Eterna round: R107; input ligand: theophylline 2 mM

chain | apparent KD of MS2 coat protein [µM]
UUGUUGUUUGGAAGGAGCGUGGAUGAGUUAGAACAUGAGGAUCACCCAUGUUGGAUGAUACCACAGGUAGGUCGCCGGGUGGUGG [11.Z] | 0.0245
CGUAUUGGAAACAGUACGAGUGAUCCGGUCCGAGGACCGGUACGGCCGCCACUCGAAAAUAAAUAACAUGAGGAUCACCCAUGUA [Ex Tryptophan A 8] | 0.0198
AAUGGUGGAACGAAGUACAGGAGUACAAAUCGAGGACCGGUACGGCCGCCACUCGCGAAAGAACAUGAGGAUCACCCAUGUAAAA [theeternabot_exclusion_MS2_Trp_A_34] | 0.177
ACUAGAGGUGGAAGGAGCGGGAGACAUGAGGAUCACAUGAGGAUCACCCAUGUAGGAUCAUCCCAGGUAGGUCGCCAUGUCGAAA [,mmlmullin] | 0.456
GGCACCAGGCGAAGGAGCGUGAAGACAUGAGGAUCACCCAUGUAGAGGCCCGGACAGGGUUCGCAGGUAGGUCGCGCCUGGUGCC [#1 Same State - Arginine B Attempt #9 (HarryS)] | 0.0268
AAACGUUGCUGCGAUACCAGACAUGAGGAUCACCCAUGUACCGAGGUACCCGAAAGGAAUGUCCCUUGGCAGCGCAGCAACGAAA [MAT - Exclusion Theophlline B - Mod of Eli - D24] | 0.124
UGUAUGGGAACAUGAGGAUCACCCAUGUGGCGAGGACCGGUACGGCCGCCACUCGAGCAGCAAGCGUGUAUGACGCUGCUGCAUG [ss-trypA-0mod] | 0.324
ACGUAAAGCAGAAGGAGCGUCUUCAAAUUACAUGAGGAUCACCCAUGUUUUGUGAUCAUAUGACAGGUAGGUCGCUGAAGUACGA [JR_SSArginiB_Sub003] | 0.0864
AAUUAUUACGGAAGGAGCGUCUUUCGGCUCAAACAUGAGGAUCACCCAUGUGAUUUUGAAUGACAGGUAGGUCGCCGAUAUUUGA [JR_AAArginiB_Sub030] | 0.0321
AACAUACAAUUUUAGGUGGAUAUAAGGCGGCGAGGACCGGUACGGCCGCCACUCGCGUACAUGAGGAUCACCCAUGUCUGAAGCU [Same State - Tryptophan A (Freestyle 6)] | 0.0273
CUAUAUAUAAGAAGGAGCGUCGAAAAUGGGUAAACAUGAGGAUCACCCAUGUAAAGGGAACGACAGGUAGGUCGCUUAUAUAUAG [AstromonsSSArgB#5] | 0.184
